Source of measurements: ChEMBL document CHEMBL5518192

Provide the reported logP of each item.
experiment: physchem; details: octanol/water
Description: Octanol/water partition coefficient, log P of the compound

Request: Return reported logP; argument: CCOC(=O)C(=O)c1cn(CCCCCNc2ccc(C(=C(C)c3ccccc3)c3ccccc3)cc2)c2ccccc12
Result: 4.81

Request: Thanks! And N#Cc1ccc(C(c2ccc(C#N)cc2)n2cncn2)cc1 [LETROZOLE] ?
Result: 2.29

Request: Thanks! And COc1ccccc1/C(C)=C(/c1ccccc1)c1ccc(NCCCCn2cc(C(=O)C(=O)O)c3ccccc32)cc1 ?
Result: 4.29

Request: Thanks! And C/C(=C(\c1ccccc1)c1ccc(NCCCCn2cc(C(=O)C(=O)O)c3ccccc32)cc1)c1cccc(Br)c1 ?
Result: 5.15

Request: Thanks! And C/C(=C(\c1ccccc1)c1ccc(NCCCCCn2cc(C(=O)C(=O)O)c3ccccc32)cc1)c1cccc(Br)c1 ?
Result: 5.33

Request: Thanks! And CC(=C(c1ccccc1)c1ccc(NCCCn2cc(C(=O)C(=O)O)c3ccccc32)cc1)c1ccccc1 ?
Result: 4.61

Request: Thanks! And CC(=C(c1ccccc1)c1ccc(NCCn2cc(C(=O)C(=O)O)c3ccccc32)cc1)c1ccccc1 ?
Result: 4.43

Request: Thanks! And CCOC(=O)C(=O)c1cn(CCCCCNc2ccc(/C(=C(/C)c3ccccc3OC)c3ccccc3)cc2)c2ccccc12 ?
Result: 4.31

Request: Thanks! And CCOC(=O)C(=O)c1cn(CCCCNc2ccc(/C(=C(/C)c3ccccc3OC)c3ccccc3)cc2)c2ccccc12 ?
Result: 4.13

Request: Thanks! And CC(=C(c1ccccc1)c1ccc(NCCCCCn2cc(C(=O)C(=O)O)c3ccccc32)cc1)c1ccccc1 ?
Result: 4.97

Request: Thanks! And CC(=C(c1ccccc1)c1ccc(NCCCCn2cc(C(=O)C(=O)O)c3ccccc32)cc1)c1ccccc1 ?
Result: 4.79

Request: Thanks! And CCOC(=O)C(=O)c1cn(CCNc2ccc(C(=C(C)c3ccccc3)c3ccccc3)cc2)c2ccccc12 ?
Result: 4.28

Request: Thanks! And CCOC(=O)C(=O)c1cn(CCCCNc2ccc(/C(=C(/C)c3cccc(Br)c3)c3ccccc3)cc2)c2ccccc12 ?
Result: 4.99

Request: Thanks! And CCOC(=O)C(=O)c1cn(CCCCCCNc2ccc(C(=C(C)c3ccccc3)c3ccccc3)cc2)c2ccccc12 ?
Result: 4.98

Request: Thanks! And CCOC(=O)C(=O)c1cn(CCCNc2ccc(C(=C(C)c3ccccc3)c3ccccc3)cc2)c2ccccc12 ?
Result: 4.46

Request: Thanks! And COc1ccccc1/C(C)=C(/c1ccccc1)c1ccc(NCCCCCn2cc(C(=O)C(=O)O)c3ccccc32)cc1 ?
Result: 4.46

Request: Thanks! And CCOC(=O)C(=O)c1cn(CCCCCNc2ccc(/C(=C(/C)c3cccc(Br)c3)c3ccccc3)cc2)c2ccccc12 ?
Result: 5.16

Request: Thanks! And CC(=C(c1ccccc1)c1ccc(NCCCCCCn2cc(C(=O)C(=O)O)c3ccccc32)cc1)c1ccccc1 ?
Result: 5.15

Request: Thanks! And CCOC(=O)C(=O)c1cn(CCCCNc2ccc(C(=C(C)c3ccccc3)c3ccccc3)cc2)c2ccccc12 ?
Result: 4.63

====

assay: in vitro; details: human, plasma
Description: Stability in human plasma assessed drug degradation at 50 uM measured after 120 mins by spectrometer
measurement-kind: metabolised at 2 h, 50 µM (%)
Reply numerically in %, unit not repeated.

Request: Return reported metabolised at 2 h, 50 µM; argument: CCOC(=O)C(=O)c1cn(CCCCCNc2ccc(C(=C(C)c3ccccc3)c3ccccc3)cc2)c2ccccc12
Result: 15.5

====

Target: Aromatase (Homo sapiens)
Sequence (P11511 whole entry): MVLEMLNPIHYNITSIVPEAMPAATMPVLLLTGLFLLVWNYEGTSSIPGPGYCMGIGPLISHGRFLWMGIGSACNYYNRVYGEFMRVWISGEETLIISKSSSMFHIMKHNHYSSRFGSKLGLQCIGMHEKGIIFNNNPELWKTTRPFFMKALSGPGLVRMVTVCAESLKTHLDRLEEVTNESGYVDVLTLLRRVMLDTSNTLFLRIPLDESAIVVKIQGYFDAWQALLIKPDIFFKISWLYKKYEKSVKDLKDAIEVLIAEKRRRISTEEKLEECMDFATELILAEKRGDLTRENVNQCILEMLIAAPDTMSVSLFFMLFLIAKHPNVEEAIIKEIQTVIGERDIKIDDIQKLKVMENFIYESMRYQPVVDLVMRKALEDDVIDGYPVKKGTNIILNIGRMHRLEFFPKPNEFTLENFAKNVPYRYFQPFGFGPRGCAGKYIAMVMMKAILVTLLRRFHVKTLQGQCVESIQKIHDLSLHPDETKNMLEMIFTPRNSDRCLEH
measurement-kind: Ki
Write your answer as a measured quantity: the number, then the unit.

Request: Return reported Ki; argument: CCOC(=O)C(=O)c1cn(CCCCCNc2ccc(C(=C(C)c3ccccc3)c3ccccc3)cc2)c2ccccc12
Result: 26 nM

====

target: Aromatase (Homo sapiens, UniProt P11511)
Provide the reported pIC50 of each item.
Keep in mind that pIC50 stands for -log10 of concentration in molar terms.

Request: For the record C/C(=C(\c1ccccc1)c1ccc(NCCCCn2cc(C(=O)C(=O)O)c3ccccc32)cc1)c1cccc(Br)c1 , what value of pIC50 is listed for Aromatase (Homo sapiens, UniProt P11511)?
Result: 5.17

Request: Thanks! And CCOC(=O)C(=O)c1cn(CCCCCNc2ccc(/C(=C(/C)c3ccccc3OC)c3ccccc3)cc2)c2ccccc12 ?
Result: 6.88

Request: Thanks! And COc1ccccc1/C(C)=C(/c1ccccc1)c1ccc(NCCCCCn2cc(C(=O)C(=O)O)c3ccccc32)cc1 ?
Result: 4.91

Request: Thanks! And CCOC(=O)C(=O)c1cn(CCCCCCNc2ccc(C(=C(C)c3ccccc3)c3ccccc3)cc2)c2ccccc12 ?
Result: 5.71

====

system: BT-549; assay: cells; details: Homo sapiens, BT-549, 48 h, read-out: GI
Provide the reported inhibition of growth at 10 µM of each item.
Reply numerically in %, unit not repeated.

Request: For the record CC/C(=C(\c1ccccc1)c1ccc(OCCN(C)C)cc1)c1ccccc1 [TAMOXIFEN] , what value of inhibition of growth at 10 µM is listed for BT-549?
Result: 30.2

Request: Thanks! And CC(=C(c1ccccc1)c1ccc(NCCn2cc(C(=O)C(=O)O)c3ccccc32)cc1)c1ccccc1 ?
Result: 32.5

Request: Thanks! And CC(=C(c1ccccc1)c1ccc(NCCCn2cc(C(=O)C(=O)O)c3ccccc32)cc1)c1ccccc1 ?
Result: 14.8

Request: Thanks! And CC(=C(c1ccccc1)c1ccc(NCCCCn2cc(C(=O)C(=O)O)c3ccccc32)cc1)c1ccccc1 ?
Result: 40.2

====

system: MDA-MB-231; assay: Growth inhibition of estrogen receptor negative human MDA-MB-231 cells at 10 uM incubated for 48 hrs by SRB assay relative to control; assay type: functional; conditions: read-out: GI
measurement-kind: inhibition of growth at 10 µM (%)
Reply numerically in %, unit not repeated.

Request: Return reported inhibition of growth at 10 µM; argument: CCOC(=O)C(=O)c1cn(CCCNc2ccc(C(=C(C)c3ccccc3)c3ccccc3)cc2)c2ccccc12
Result: 13.6

Request: Thanks! And CC(=C(c1ccccc1)c1ccc(NCCn2cc(C(=O)C(=O)O)c3ccccc32)cc1)c1ccccc1 ?
Result: 13.3

Request: Thanks! And CCOC(=O)C(=O)c1cn(CCCCCNc2ccc(C(=C(C)c3ccccc3)c3ccccc3)cc2)c2ccccc12 ?
Result: 18.2

Request: Thanks! And CC/C(=C(\c1ccccc1)c1ccc(OCCN(C)C)cc1)c1ccccc1 ?
Result: 54.8

====

tested on: MCF7; experiment: cells; settings: Homo sapiens, MCF7, 48 h, read-out: GI
Provide the reported inhibition of growth at 10 µM of each item.
Reply numerically in %, unit not repeated.

Request: Return reported inhibition of growth at 10 µM; argument: CC(=C(c1ccccc1)c1ccc(NCCn2cc(C(=O)C(=O)O)c3ccccc32)cc1)c1ccccc1
Result: 47.3

Request: Thanks! And CCOC(=O)C(=O)c1cn(CCCCCNc2ccc(C(=C(C)c3ccccc3)c3ccccc3)cc2)c2ccccc12 ?
Result: 8.48

Request: Thanks! And CC(=C(c1ccccc1)c1ccc(NCCCCn2cc(C(=O)C(=O)O)c3ccccc32)cc1)c1ccccc1 ?
Result: 14.3

Request: Thanks! And CCOC(=O)C(=O)c1cn(CCCNc2ccc(C(=C(C)c3ccccc3)c3ccccc3)cc2)c2ccccc12 ?
Result: 10.9

Request: Thanks! And CC/C(=C(\c1ccccc1)c1ccc(OCCN(C)C)cc1)c1ccccc1 ?
Result: -10.3

====

Biological target: Aromatase (Homo sapiens, UniProt P11511)
Sequence (P11511 whole entry): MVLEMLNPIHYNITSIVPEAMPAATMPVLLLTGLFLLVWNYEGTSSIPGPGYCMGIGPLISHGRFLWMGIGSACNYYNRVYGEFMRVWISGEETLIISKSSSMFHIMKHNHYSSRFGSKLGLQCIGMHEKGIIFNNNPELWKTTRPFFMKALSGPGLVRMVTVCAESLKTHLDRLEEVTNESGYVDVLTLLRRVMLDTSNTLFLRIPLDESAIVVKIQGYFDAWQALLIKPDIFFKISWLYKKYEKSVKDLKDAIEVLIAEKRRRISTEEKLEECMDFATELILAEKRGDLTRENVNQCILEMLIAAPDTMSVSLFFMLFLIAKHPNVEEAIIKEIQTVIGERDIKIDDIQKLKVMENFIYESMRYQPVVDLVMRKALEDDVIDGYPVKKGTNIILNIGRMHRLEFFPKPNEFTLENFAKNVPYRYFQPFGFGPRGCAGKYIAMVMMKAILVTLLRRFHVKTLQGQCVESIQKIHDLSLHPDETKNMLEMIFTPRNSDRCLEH
Provide the reported IC50 of each item.

Request: Return reported IC50; argument: CCOC(=O)C(=O)c1cn(CCCCNc2ccc(/C(=C(/C)c3ccccc3OC)c3ccccc3)cc2)c2ccccc12
Result: 3200 nM

Request: Thanks! And CC(=C(c1ccccc1)c1ccc(NCCCCCn2cc(C(=O)C(=O)O)c3ccccc32)cc1)c1ccccc1 ?
Result: 3170 nM

Request: Thanks! And C/C(=C(\c1ccccc1)c1ccc(NCCCCCn2cc(C(=O)C(=O)O)c3ccccc32)cc1)c1cccc(Br)c1 ?
Result: 800 nM

Request: Thanks! And CCOC(=O)C(=O)c1cn(CCCCNc2ccc(C(=C(C)c3ccccc3)c3ccccc3)cc2)c2ccccc12 ?
Result: 500 nM

Request: Thanks! And CCOC(=O)C(=O)c1cn(CCCCCNc2ccc(C(=C(C)c3ccccc3)c3ccccc3)cc2)c2ccccc12 ?
Result: 54 nM

Request: Thanks! And CCOC(=O)C(=O)c1cn(CCCCCNc2ccc(/C(=C(/C)c3cccc(Br)c3)c3ccccc3)cc2)c2ccccc12 ?
Result: 790 nM

Request: Thanks! And CC(=C(c1ccccc1)c1ccc(NCCCCn2cc(C(=O)C(=O)O)c3ccccc32)cc1)c1ccccc1 ?
Result: 1370 nM

Request: Thanks! And COc1ccccc1/C(C)=C(/c1ccccc1)c1ccc(NCCCCn2cc(C(=O)C(=O)O)c3ccccc32)cc1 ?
Result: 550 nM

Request: Thanks! And CCOC(=O)C(=O)c1cn(CCCCNc2ccc(/C(=C(/C)c3cccc(Br)c3)c3ccccc3)cc2)c2ccccc12 ?
Result: 3860 nM
